assay: Liver microsomal stability, rat liver microsomes; type: in vitro ADME; details: 1 μM compound, NADPH, read-out: t1/2 (min) in RLM
measured.quantity: half-life at 1 μM

>  <compound>
COc1cccc(OC)c1-c1ncc2cnn(Cc3ccc(-c4nc(C(F)(F)F)cn4C)cc3)c2n1

>  <half-life at 1 μM>
< 25 min

$$$$

Which half-life at 1 μM is reported for this compound? `CCn1cc(C(F)(F)F)nc1-c1ccc([C@H](C)n2ncc3cnc(-c4c(OC)ncnc4C4CC4)nc32)cc1F`
> 25 min

Which half-life at 1 μM is reported for this compound? COCC(C)n1cc(C(F)(F)F)nc1-c1ccc(Cn2ncc3cnc(-c4c(OC)ncnc4C4CC4)nc32)cc1 (centres unmarked)
< 25 min

Which half-life at 1 μM is reported for this compound? `COc1cccc(C)c1-c1ncc2cnn(Cc3ccc(-c4nc(C(F)(F)F)cn4C)cc3)c2n1`
< 25 min

Which half-life at 1 μM is reported for this compound? `CSc1ncnc(C)c1-c1ncc2cnn(Cc3ccc(-n4nc(C(F)(F)F)cc4C)cc3)c2n1`
< 25 min

Which half-life at 1 μM is reported for this compound? `COc1ncnc(C2CC2)c1-c1nc(OC)c2cnn(Cc3ccc(-n4nc(C(F)(F)F)cc4C)cc3)c2n1`
> 25 min

Which half-life at 1 μM is reported for this compound? `CCn1cc(C(F)(F)F)nc1-c1ccc(Cn2ncc3cnc(-c4c(OC)ncnc4C4CC4)nc32)cc1OC`
< 25 min

Which half-life at 1 μM is reported for this compound? `COc1ncnc(C2(C)CC2)c1-c1ncc2cnn(Cc3ccc(-n4nc(C(F)(F)F)cc4OC)cc3)c2n1`
> 25 min

----------
assay: Liver microsomal stability, rat liver microsomes; assay type: in vitro ADME; settings: 1 μM compound, NADPH, read-out: t1/2 (min) in RLM
Listing of recorded half-life at 1 μM by entry.

Consider the following illustrative entries.
>  <molecule>
COc1ncnc(C2CC2)c1-c1ncc2cnn(Cc3ccc(-n4nc(C(F)(F)F)cc4C#N)cc3)c2n1

>  <half-life at 1 μM>
> 25 min

$$$$
>  <molecule>
Cn1cc(C(F)(F)F)nc1-c1ccc(Cn2ncc3cnc(-c4c(OS(=O)(=O)C(F)(F)F)ncnc4C4CC4)nc32)cc1

>  <half-life at 1 μM>
> 25 min

$$$$
>  <molecule>
CNc1cc(C(F)(F)F)nn1-c1ccc(Cn2ncc3cnc(-c4c(OC)ncnc4C4CC4)nc32)cc1

>  <half-life at 1 μM>
< 25 min

$$$$
>  <molecule>
COc1ncnc(C2CC2)c1-c1ncc2nc(C)n(Cc3ccc(-c4nc(C(F)(F)F)cn4C)cc3)c2n1

>  <half-life at 1 μM>
> 25 min

$$$$
>  <molecule>
CC(C)c1ccccc1-c1ncc2cnn(C(C)c3ccc(-c4nc(C(F)(F)F)cn4C)cc3)c2n1 (stereo not shown)

>  <half-life at 1 μM>
< 25 min

$$$$

Which half-life at 1 μM is reported for this molecule? `COc1ncnc(C2CC2)c1-c1ncc2ncn(Cc3ccc(-c4nc(C(F)(F)F)cn4C(C)C)cc3)c2n1`
< 25 min

Which half-life at 1 μM is reported for this molecule? `CCn1cc(C(F)(F)F)nc1-c1ccc(Cn2ncc3cnc(-c4c(OC)ncnc4C4CC4)nc32)cc1`
> 25 min

----------
biological target: USP1/UAF1 (Homo sapiens (Human), UniProt O94782); test: Deubiquitination assay for USP1/UAF1 activity (ubiquitin-rhodamine 110); type: biochemical; conditions: Table 3; 0.05 nM USP1/UAF1, 150 nM ubiquitin-rhodamine
Sequence (O94782 whole entry): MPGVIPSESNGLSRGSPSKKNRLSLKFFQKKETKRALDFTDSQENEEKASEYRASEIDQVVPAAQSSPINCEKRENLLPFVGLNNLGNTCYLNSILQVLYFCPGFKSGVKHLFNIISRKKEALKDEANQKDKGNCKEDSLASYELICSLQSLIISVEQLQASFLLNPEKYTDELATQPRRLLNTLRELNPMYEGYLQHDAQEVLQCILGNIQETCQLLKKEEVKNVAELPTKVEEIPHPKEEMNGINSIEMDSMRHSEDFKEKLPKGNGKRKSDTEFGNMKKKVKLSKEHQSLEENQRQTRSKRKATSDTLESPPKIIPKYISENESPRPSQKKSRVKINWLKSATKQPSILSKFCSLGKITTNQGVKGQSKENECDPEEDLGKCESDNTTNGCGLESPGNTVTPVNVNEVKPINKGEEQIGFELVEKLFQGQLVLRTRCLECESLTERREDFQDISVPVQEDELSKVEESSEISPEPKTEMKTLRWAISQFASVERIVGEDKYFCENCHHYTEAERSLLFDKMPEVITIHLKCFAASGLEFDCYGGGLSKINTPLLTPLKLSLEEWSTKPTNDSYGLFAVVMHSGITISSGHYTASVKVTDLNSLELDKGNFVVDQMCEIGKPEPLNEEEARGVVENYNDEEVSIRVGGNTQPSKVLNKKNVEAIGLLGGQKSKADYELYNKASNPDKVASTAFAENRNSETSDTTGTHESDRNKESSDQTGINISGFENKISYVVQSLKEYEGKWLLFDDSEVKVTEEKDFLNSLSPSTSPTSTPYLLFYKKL
Sequence (Q8TAF3 whole entry partner): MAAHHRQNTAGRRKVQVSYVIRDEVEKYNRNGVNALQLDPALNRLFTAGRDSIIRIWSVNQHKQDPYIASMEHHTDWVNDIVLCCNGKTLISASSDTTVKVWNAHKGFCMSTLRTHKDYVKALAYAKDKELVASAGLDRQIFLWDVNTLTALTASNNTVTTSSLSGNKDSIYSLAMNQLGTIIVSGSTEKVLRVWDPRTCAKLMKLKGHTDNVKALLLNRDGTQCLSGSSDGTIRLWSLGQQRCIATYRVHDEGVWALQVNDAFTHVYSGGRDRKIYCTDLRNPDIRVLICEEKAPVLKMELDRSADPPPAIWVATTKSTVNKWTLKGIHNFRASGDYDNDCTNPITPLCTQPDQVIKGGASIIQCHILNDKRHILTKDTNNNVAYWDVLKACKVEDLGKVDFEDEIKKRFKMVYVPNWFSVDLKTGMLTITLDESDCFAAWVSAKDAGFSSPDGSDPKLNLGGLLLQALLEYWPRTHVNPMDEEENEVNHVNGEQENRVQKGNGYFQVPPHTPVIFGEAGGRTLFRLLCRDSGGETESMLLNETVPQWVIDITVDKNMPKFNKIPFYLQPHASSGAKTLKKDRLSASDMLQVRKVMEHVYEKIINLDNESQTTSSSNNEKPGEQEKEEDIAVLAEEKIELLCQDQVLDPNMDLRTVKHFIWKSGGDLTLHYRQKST
Listing of recorded IC50 by entry.

Consider the following illustrative entries.
>  <molecule>
CCOc1ncnc(OCC)c1-c1ncc2cnn(Cc3ccc(-c4nc(C(F)(F)F)cn4CC)cc3)c2n1 [drawing 733]

>  <measured.quantity>
IC50

>  <test.value>
< 10 nM

$$$$
>  <molecule>
CCn1cc(C(F)(F)F)nc1-c1ccc(Cn2ncc3cnc(-c4c(OC)ncnc4C4CC4)nc32)cn1 [drawing 767]

>  <measured.quantity>
IC50

>  <test.value>
10 to 100 nM

$$$$
>  <molecule>
Cn1cc(C(F)(F)F)nc1-c1ccc(Cn2ncc3cnc(-c4c(OC5CCOC5)ncnc4C4CC4)nc32)cc1 (stereo not shown)

>  <measured.quantity>
IC50

>  <test.value>
100 to 200 nM

$$$$

Which IC50 is reported for this molecule? `COc1ncnc(C)c1-c1ncc2cnn(Cc3ccc(-n4nc(C(F)(F)F)cc4OC)cc3)c2n1`
100 to 200 nM

Which IC50 is reported for this molecule? COc1ncnc(C)c1-c1ncc2cnn(Cc3ccc(-n4nc(C(F)(F)F)cc4C)cc3)c2n1 [drawing 784]
100 to 200 nM

Which IC50 is reported for this molecule? CCn1cc(C(F)(F)F)nc1-c1ccc([C@@H](C)n2ncc3cnc(-c4c(OC)ncnc4C4CC4)nc32)cc1 (single isomer, unassigned) [drawing 747]
10 to 100 nM

Which IC50 is reported for this molecule? COc1ncnc(C2CC2)c1-c1ncc2cnn([C@H](C)c3ccc(-c4nc(C(F)(F)F)cn4C)cc3)c2n1 (single isomer, unassigned) [drawing 759]
10 to 100 nM

Measured values drawn from patent US11485736B2 for this set.
